assayConditions: in acetonitrile, 283.15 K
measurementType: solubility (mole fraction)

{"compound": "CC(C(=O)O)c1ccc(CC2CCCC2=O)cc1 (stereo unspecified)", "reported": 0.0234}

---

assayConditions: in ethyl acetate, 308.15 K

{"compound": "CC(C(=O)O)c1ccc(CC2CCCC2=O)cc1 (stereo unspecified)", "solubility (mole fraction)": 0.13}

---

assayConditions: in isobutyl acetate, 318.15 K
measurementType: solubility (mole fraction)

{"compound": "CC(C(=O)O)c1ccc(CC2CCCC2=O)cc1 (stereo unspecified)", "measurementType": "solubility (mole fraction)", "reported": 0.116}

---

assayConditions: in n-propyl acetate, 303.15 K
measurementType: solubility (mole fraction)

{"compound": "CC(C(=O)O)c1ccc(CC2CCCC2=O)cc1 (stereo unspecified)", "measurementType": "solubility (mole fraction)", "reported": 0.0814}

Values compiled from BigSolDB 2.1.
